protocol.details: BET inhibitor-based combinations targeting novel dependencies in MECOM-rearranged (r) AML: AML-194 cell line (AID 2202237; further: nearly all actives have a fitted effect of over 40% in size)
study.conditions: AML-194 (MECOM-r AML) viability, CellTiter-Glo, 48 h; series mostly up to 46 µM
Inconclusive results are not listed. Calls of active or inactive are those of the source. The call rests on the fitted dose curve; in most records, active means well fitted inhibition curve with a large enough effect; inconclusive means small, poorly fitted or top-dose-only effect; inactive means flat fitted curve, though single readings scatter.
Can you answer with just one of these options? 1.0 for active, 0.0 for inactive

Status in this test for Cn1c2cc(S(C)=O)sc2c2cnn(Cc3cccc(N)c3)c(=O)c21 (stereo not drawn) ?
0.0

Status in this test for `CCCCNc1cc(C(=O)O)cc(S(N)(=O)=O)c1Oc1ccccc1` ?
0.0

Status in this test for `Clc1ccc(C2(c3ccc(-c4cn[nH]c4)cc3)CCNCC2)cc1` ?
1.0
